System Under Test: human cyclin B-CDK1 (Homo sapiens)
Sequence (P06493 whole entry): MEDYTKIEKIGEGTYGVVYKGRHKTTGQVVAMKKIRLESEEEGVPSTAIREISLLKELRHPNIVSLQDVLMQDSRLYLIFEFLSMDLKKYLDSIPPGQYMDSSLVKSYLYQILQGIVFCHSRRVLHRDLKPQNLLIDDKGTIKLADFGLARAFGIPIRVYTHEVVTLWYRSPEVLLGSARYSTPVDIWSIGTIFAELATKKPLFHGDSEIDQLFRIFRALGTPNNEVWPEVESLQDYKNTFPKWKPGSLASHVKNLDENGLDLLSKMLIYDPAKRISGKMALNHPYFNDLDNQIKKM
Sequence (P14635 whole entry partner): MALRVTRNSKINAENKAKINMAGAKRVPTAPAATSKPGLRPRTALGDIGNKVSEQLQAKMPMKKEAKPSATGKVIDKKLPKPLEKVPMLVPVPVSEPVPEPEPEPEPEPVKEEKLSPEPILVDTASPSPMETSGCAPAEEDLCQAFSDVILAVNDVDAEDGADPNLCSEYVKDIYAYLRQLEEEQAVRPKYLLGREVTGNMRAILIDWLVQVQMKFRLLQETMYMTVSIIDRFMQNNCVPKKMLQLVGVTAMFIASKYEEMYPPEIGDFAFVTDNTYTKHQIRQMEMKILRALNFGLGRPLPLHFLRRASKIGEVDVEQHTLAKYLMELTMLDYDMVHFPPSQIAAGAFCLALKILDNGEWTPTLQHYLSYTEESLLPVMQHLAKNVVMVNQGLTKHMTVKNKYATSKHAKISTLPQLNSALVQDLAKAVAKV
Catalogue of pKi readings, one per entry.
Note on units: pKi is unitless, being -log10 of a concentration expressed in mol/L.

Before answering, review these 3 worked examples.
• CS(=O)(=O)N1CCC(Nc2ncc(C(=S)c3c(F)cccc3F)c(N)n2)CC1 = 8.52
• CS(=O)(=O)N1CCC(Nc2ncc(C(=S)c3c(Cl)ccc(F)c3F)c(N)n2)CC1 = 8.52
• COc1ccc(F)c(F)c1C(=S)c1cnc(NC2CCN(S(C)(=O)=O)CC2)nc1N = 9.89

Now let's try a different one.
Incoming: Find the recorded pKi belonging to "CS(=O)(=O)N1CCC(Nc2ncc(C(=S)c3ccccc3)c(N)n2)CC1" and report it.
Outgoing: 7.57
